Measured values drawn from the supplement of paper PMC12042874 for this set.

# ASSAY_REMARKS: amyloid nucleation score (Sup35N fusion, yeast selection) (log enrichment); library NNK3; higher = more nucleation; inactive = no reads after selection;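 also: zero at mode of non-aggregating sequences after 7 days selection at 30°C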
Exercise: for every item that follows, state its recorded amyloid nucleation score.
// no unit, no text: just the number

Query: Fill in: amyloid nucleation score of ELRQMTRVSVLASYTWSTTL is ___
Response: -0.014

Query: I am curious: what amyloid nucleation score value has been reported for IEINCCSNFIGVCVDNLNL ?
Response: 2.57

Query: Requested read-out: amyloid nucleation score. Entry: WQVTCDFTFNLRFLFGFGDC
Response: 0.617

Query: Using the record for FTVGILFGNLHLEFGVKVND , report its amyloid nucleation score.
Response: 1.6

====

# ASSAY_REMARKS: amyloid nucleation score (Sup35N fusion, yeast selection) (log enrichment); library NNK2; higher = more nucleation; inactive = no reads after selection
MEASUREMENT_KIND: amyloid nucleation score

INSERT INTO measurements (sequence_entry, measurement_kind, result) VALUES
  ('NSNLNYPECWEEWTLNHFTD', 'amyloid nucleation score', 'inactive'),
  ('CNEDFLSQLVVLHFKEYGDN', 'amyloid nucleation score', 'inactive'),
  ('LGFFKSGVVH', 'amyloid nucleation score', 'inactive');

====

Consider the following substances; for each one, report its amyloid nucleation score.
# ASSAY_REMARKS: amyloid nucleation score (Sup35N fusion, yeast selection) (log enrichment); library NNK1; higher = more nucleation; inactive = no reads after selection
// no unit, no text: just the number

Query: Find the recorded amyloid nucleation score belonging to MRGAVKVGEMWNHISESRVG and report it.
Response: 0.98

Query: Reported amyloid nucleation score, substance YYSSHYVDIAHSKE : ____
Response: 0.334

Query: Request the reported amyloid nucleation score associated with RRCMLLYCGLGAGALGSDGR
Response: -0.539

Query: I am curious: what amyloid nucleation score value has been reported for TVVHINHHFRGTFISMAKSR ?
Response: -1.58

Query: May I ask what amyloid nucleation score has been recorded for IGYLDYLCCGISLFFQETEA ?
Response: 0.427

Query: Sample SGGIQCTGGRISVSCAVGKN — what was its amyloid nucleation score?
Response: -0.224

Query: What value of measured amyloid nucleation score is listed for QHVMPWPWWMGLSSLDRWYL ?
Response: 1.44

Query: What value of measured amyloid nucleation score is listed for SHSLHLESSASSLTR ?
Response: -1

Query: I have this substance here, GYSAYRFGQCMSETGRRRIH , and I need its recorded amyloid nucleation score.
Response: 1.42

Query: Fill in: amyloid nucleation score of WHDKVKDFRIRAGHLSYSRG is ___
Response: 0.486

Query: I'd like to know its amyloid nucleation score. The substance in question is INRSSVESLVLTDLKHWTSG
Response: 0.504

Query: I am curious: what amyloid nucleation score value has been reported for VVVFDKR ?
Response: -0.041

Query: amyloid nucleation score; subject: TKCGIAYFTQICLVPDVSNS
Response: 7.04

Query: Could you tell me which amyloid nucleation score is on file for PVNLGSDVYYNVRSQCGSMY ?
Response: -0.218

Query: Recorded amyloid nucleation score for LDDWRVMLVSANMHHVRC , please?
Response: -0.642

====

# ASSAY_REMARKS: amyloid nucleation score (Sup35N fusion, yeast selection) (log enrichment); library NNK1; higher = more nucleation; inactive = no reads after selection
Hi, to clarify the labels: true (1) covers amyloid nucleation score from -0.2 upward, false (0) covers anything below -0.2.

Query: Is amyloid nucleation score at least -0.2? Consider DNVCRYGRKCWKRERESGQT
Response: true (1)

Query: Confirm if amyloid nucleation score reported for the substance SFVFLRNL is -0.2 or above.
Response: true (1)

Query: Given the entry ELKPKAFVVLSDHRHGYKRQ , answer whether its amyloid nucleation score meets or surpasses -0.2.
Response: true (1)

Query: Is amyloid nucleation score at least -0.2? Consider VQNTWVILRKL
Response: true (1)

Query: In plain terms: is recorded amyloid nucleation score at least -0.2 for PLRDKESVLMWLYSYWVTNI ?
Response: true (1)

Query: Check the entry VGSHVRREFCELVYRS : does amyloid nucleation score equal or exceed -0.2?
Response: false (0)

Query: I'd appreciate it if you could say whether RNGLALRLTNTTRSTYLSRQ has amyloid nucleation score at least equal to -0.2.
Response: true (1)

Query: In plain terms: is recorded amyloid nucleation score at least -0.2 for SSSVVSV ?
Response: true (1)

Query: Check if amyloid nucleation score >= -0.2 (inclusive). Item: LDLNRFDPWVVTSLLCFPVA
Response: false (0)

Query: Quick check: does DYGAKDHFPIAITKEVMSLN have amyloid nucleation score greater than or equal to -0.2?
Response: false (0)

Query: hey, is amyloid nucleation score for this one >= -0.2? RSCITESRRHIWRTGMVEKW
Response: true (1)

Query: Dear colleague, could you confirm whether PIFAVTKVQVMRPH has amyloid nucleation score at or above -0.2?
Response: false (0)

Query: Item VFNVGYLV with amyloid nucleation score of -0.2 or above?
Response: false (0)

Query: Quick check, amyloid nucleation score >= -0.2? NSNLVFFRQYIYTVLYTNSF
Response: true (1)

Query: Tell me whether amyloid nucleation score is at least -0.2 here: HNMGWLFLLAVYLQMFT
Response: false (0)

Query: Entry VVHHEDYMRLGC : is its amyloid nucleation score no less than -0.2?
Response: false (0)

Query: Can LLAMFKFDNPHILFCSSILL be said to have amyloid nucleation score at or above -0.2?
Response: true (1)

Query: For this substance, is measured amyloid nucleation score -0.2 or higher? AWKGWFLMGYCGDRVMWDWR
Response: true (1)

Query: Form field: amyloid nucleation score at least -0.2? Entry: TYRTWLYLPLQCAIYLGVSL
Response: false (0)

Query: Item LYMYRSYI with amyloid nucleation score of -0.2 or above?
Response: true (1)

Query: State whether the measured amyloid nucleation score reaches -0.2, counting equality as reaching it, for CFSGPPMTESVYNPTSGNEH
Response: true (1)

Query: Decide: is the reported value of amyloid nucleation score for YENSFGGHYSDESNTRRWEF equal to or greater than -0.2?
Response: true (1)

Query: Check this substance for amyloid nucleation score at or above -0.2: VLIFAKFYELPGDRRFGTGW
Response: true (1)

Query: Test whether the substance CLRPLEPDVYVTRILRFCDS records amyloid nucleation score of -0.2 or higher.
Response: false (0)

Query: State whether the measured amyloid nucleation score reaches -0.2, counting equality as reaching it, for SKSYVM
Response: true (1)

Query: Threshold query (amyloid nucleation score >= -0.2) on SNLLTRSPLMLSSIIMVMNC
Response: true (1)

Query: Could you tell me if the measured amyloid nucleation score of LGISPVSTGKKVNEDVYSGF reaches -0.2 or more?
Response: true (1)

Query: Could you verify whether the entry LVDCMALLNRYTSRIMDNC shows amyloid nucleation score of no less than -0.2?
Response: false (0)

Query: Please tell me: is the substance RRVLRTSKNSSLMDFYATIE at or over -0.2 in terms of amyloid nucleation score?
Response: true (1)

Query: Decide: is the reported value of amyloid nucleation score for LLVKNHMRSQEWPLKNSLTN equal to or greater than -0.2?
Response: false (0)

Query: Record LHRALGQSSWWARQW ; criterion: amyloid nucleation score no lower than -0.2. Met?
Response: true (1)

Query: Does MASPLSLGKAVALAKHKWGD have a reported amyloid nucleation score of at least -0.2?
Response: true (1)

Query: Identify whether the reported amyloid nucleation score of the following substance is -0.2 or greater: RIDQNICGIVNMVFR
Response: true (1)

Query: Given RRPNETS , state whether its amyloid nucleation score is at least -0.2.
Response: false (0)

Query: Quick check: does FPCLTSSTSGYWSLI have amyloid nucleation score greater than or equal to -0.2?
Response: true (1)

Query: Is amyloid nucleation score for GSCLFVRGSFVDVGRLFESV at or above -0.2?
Response: true (1)

Query: hey, is amyloid nucleation score for this one >= -0.2? KYKFVRANLILFGMVRG
Response: true (1)

Query: Has IMKRCCGESMMPDAGWSGSA a recorded amyloid nucleation score greater than or equal to -0.2?
Response: false (0)

Query: # check: amyloid nucleation score of MSLSDNWGL is greater than or equal to -0.2
Response: false (0)

Query: Exam item: decide whether the reported amyloid nucleation score for CLLTNTKFWYISMSHDLGCL is at least -0.2.
Response: true (1)

Query: Has NIHVSKVGGLGTNLCYARNA a recorded amyloid nucleation score greater than or equal to -0.2?
Response: true (1)

Query: Answer whether amyloid nucleation score of IGWCWVIMQGNIEQVDRG is greater than or equal to -0.2.
Response: true (1)

Query: Check if amyloid nucleation score >= -0.2 (inclusive). Item: LSPLNVKIDSSFVFYIIRLK
Response: true (1)

Query: hey, is amyloid nucleation score for this one >= -0.2? RDTHRDNRNLPSHLSSVYRK
Response: false (0)

Query: # check: amyloid nucleation score of EMAELLAMRQLLRTKIH is greater than or equal to -0.2
Response: true (1)

Query: Hello, I need to know if PDCRSYLTIF has measured amyloid nucleation score not below -0.2. Thanks!
Response: true (1)

Query: Hello, I need to know if QGNHVKCVLCRVIPMRCLGL has measured amyloid nucleation score not below -0.2. Thanks!
Response: false (0)

Query: Does the substance ARAFPNMPPVLILILHLRLY have recorded amyloid nucleation score that is -0.2 or more?
Response: true (1)
